- Test system: 217524-143-R1-J4-PDC spheroids with HUVEC/MSC, viability;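 also: spheroids exposed to agents for seven days before reading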
- assay comment: Anticancer human tumor 217524-143-R1-J4-PDC patient-derived pancreatic carcinoma cell line growth inhibition [CLK]
- stated conditions: second compound 0.316 µM; first compound 0.316 µM; hits give low values
Label yes when viability, T/C < 30%; otherwise no.

- compound: "CC1COCCN1c1cc(C2(S(C)(=N)=O)CC2)nc(-c2ccnc3[nH]ccc23)n1 (stereo not given) + CNC(=O)c1ccc(Nc2nc(OC3CCCC3)c3c(-c4ccc5nc(C)oc5c4)c[nH]c3n2)c(OC)c1"
  system tested: "217524-143-R1-J4-PDC spheroids with HUVEC/MSC, viability"
  category: "no"

Challenge: For this compound, is viability, T/C lower than 30%? CCc1c2c(nc3ccc(O)cc13)-c1cc3c(c(=O)n1C2)COC(=O)[C@]3(O)CC + CN1CCN(c2cc(C(=O)Nc3cc4cc(-c5cnn(C)c5)ccc4cn3)ccn2)CC1
Response given: yes

Challenge: Decide: viability, T/C of C#Cc1c(F)ccc2cc(O)cc(-c3ncc4c(N5CC6CCC(C5)N6)nc(OCC56CCCN5CC(F)C6)nc4c3F)c12 (stereo not given) + CN1CCN(c2cc(C(=O)Nc3cc4cc(-c5cnn(C)c5)ccc4cn3)ccn2)CC1 strictly below 30%?
Response given: yes

Challenge: Problem: For the compound O=C(c1cc(Cc2n[nH]c(=O)c3ccccc23)ccc1F)N1CCN(C(=O)C2CC2)CC1 + CN1CCN(c2cc(C(=O)Nc3cc4cc(-c5cnn(C)c5)ccc4cn3)ccn2)CC1 , is viability, T/C under 30%?
Response given: yes

Challenge: Consider the compound C=CC(=O)N1CCN(c2nc(=O)n(-c3c(C)ccnc3C(C)C)c3nc(-c4c(O)cccc4F)c(F)cc23)C(C)C1 (stereo not given) + CN1CCN(c2cc(C(=O)Nc3cc4cc(-c5cnn(C)c5)ccc4cn3)ccn2)CC1 . Is its viability, T/C strictly less than 30%?
Response given: yes
